Answer each item with its documented pKd.
TEST_SYSTEM: RSV prefusion F (preF, DS-Cav1) (Respiratory syncytial virus)
PROCEDURE_DETAILS: BLI, IgG on sensor, 100 nM antigen
Notebook: values listed as pKd are -log10 of the concentration (mol/L).

Param item = ADI-41314 (antibody, V domains shown) VH: QVQLVQSGAEVKKPGSSVKVSCKAFGGIFSSYAISWVRQAPGQGLEWMGGIIPIFGTTKYAQKFQGRVTITADKSTSTVYMEVSSLRFEESAVYFCARAYCSGGTWYGGADYWGQGTLVTVSS VL: QSVLTQPPSVSVSPGQTARITCSGDVLPKQYAYWYQQKPGQAPLLVMYKDTERPSGIPERFSGSSSVTAVTLTISGVQAEDEADYYCQSADSTQELFGGGTKLTVL ; retrieve measured pKd.
8.62

Given ADI-41245 (antibody, V domains shown) VH: QVQLVESGGGLVKPGGSLRLSCAASGFSFSAYYMSWIRQAPGKGLEWISNISGGSSYANYADSVEGRFTISRDNAKNSLYLQMNSLRAEDTAVYYCAREFQTYYYMDVWGKGTTVTVSS VL: QPVLTQPPSVSGAPGQRVTISCTGSSSNIGAGYEVHWYQQLPGTAPKLLIYGNNNRPSGVPDRFSGSKSGTSASLAITGLQAEDEADYYCQSYDSSLSGSVFGGGTKLTVL , state its recorded pKd.
9.11

What does the record list as pKd for ADI-41258 (antibody, V domains shown) VH: QVQLVQSGGGLVQRGGSLRLSCAASGFSFRSYAMSWVRQAPGKGLEWVSSISDSGDNTFYADSVKGRFSISRDNSRDTLYLQMNSLRAEDTAVYYCARGGYCSGGNCFPFDYWGQGTLVTVSS VL: SYELMQLPSVSVSPGQTARITCSGDALPKQYGYWYQQKPGQAPVLVIYKDSERPSGIPERFSGSSSGTTVTLTISGVQAEDEADYYCQSADSGGTYVMFGGGTKLTVL ?
9.01
